# SYSTEM_NAME: human progesterone receptor A (Homo sapiens, UniProt P06401)
# Construct: expressed in transfected cells; host or cells: SK-N-MC human neuroblastoma cells, stably transfected with pRChPR-A-neo and pMMTV-LUC
# Sequence (P06401 1-769 isoform P06401-2): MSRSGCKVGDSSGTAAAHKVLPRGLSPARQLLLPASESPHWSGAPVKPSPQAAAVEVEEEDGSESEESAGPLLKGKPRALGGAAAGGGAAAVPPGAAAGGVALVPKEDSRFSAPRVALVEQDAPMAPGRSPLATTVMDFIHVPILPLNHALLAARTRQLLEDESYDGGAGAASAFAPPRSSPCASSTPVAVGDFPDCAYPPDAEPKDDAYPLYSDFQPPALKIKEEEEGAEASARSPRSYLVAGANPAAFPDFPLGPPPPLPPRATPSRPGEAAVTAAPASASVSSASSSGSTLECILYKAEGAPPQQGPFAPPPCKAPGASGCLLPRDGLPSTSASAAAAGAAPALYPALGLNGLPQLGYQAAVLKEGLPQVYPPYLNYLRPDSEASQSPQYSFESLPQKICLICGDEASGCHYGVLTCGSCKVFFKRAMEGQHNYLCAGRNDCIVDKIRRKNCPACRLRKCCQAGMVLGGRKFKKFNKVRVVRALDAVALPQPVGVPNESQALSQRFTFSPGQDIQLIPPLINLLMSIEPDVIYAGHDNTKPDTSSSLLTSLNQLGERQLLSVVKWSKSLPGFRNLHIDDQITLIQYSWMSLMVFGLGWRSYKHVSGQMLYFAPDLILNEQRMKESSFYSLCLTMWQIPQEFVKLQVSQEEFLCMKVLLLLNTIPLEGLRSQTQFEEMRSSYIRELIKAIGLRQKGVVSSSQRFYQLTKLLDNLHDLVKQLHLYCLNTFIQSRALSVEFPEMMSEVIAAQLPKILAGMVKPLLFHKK
# ASSAY_NOTES: Progesterone receptor-antagonistic action in stably transfected SK-N-MC cells, PR-A, MMTV-LUC reporter
# Type: cell-based
# CONDITION_SET: read-out: IC50 PR-A
pIC50: −log10 of the molar value.
MEASURE_NAME: pIC50

{"columns": ["COMPOUND", "SYSTEM_NAME", "RESULT"],
 "data": [
  ["COC(=O)c1ccc(C#Cc2ccc([C@H]3C[C@@]4(C)[C@@H](CC[C@@]4(O)C(F)(F)C(F)(F)F)[C@@H]4CCC5=CC(=O)CCC5=C43)cc2)cc1", "human progesterone receptor A (Homo sapiens, UniProt P06401)", 9.15],
  ["C=CCNC(=O)NCC#Cc1ccc([C@H]2C[C@@]3(C)[C@@H](CC[C@@]3(O)C(F)(F)C(F)(F)F)[C@@H]3CCC4=CC(=O)CCC4=C32)cc1", "human progesterone receptor A (Homo sapiens, UniProt P06401)", 10.00],
  ["COc1ccc(NC(=O)NCC#Cc2ccc([C@H]3C[C@@]4(C)[C@@H](CC[C@@]4(O)C(F)(F)C(F)(F)F)[C@@H]4CCC5=CC(=O)CCC5=C43)cc2)cc1", "human progesterone receptor A (Homo sapiens, UniProt P06401)", 9.70],
  ["C[C@]12C[C@H](c3ccc(C#CCOC(=O)Nc4ccc(F)cc4)cc3)C3=C4CCC(=O)C=C4CCC3C1CC[C@@]2(O)C(F)(F)C(F)(F)F (stereo partly shown)", "human progesterone receptor A (Homo sapiens, UniProt P06401)", 10.05],
  ["CCOC(=O)c1ccc(NC(=O)OCC#Cc2ccc([C@H]3C[C@@]4(C)[C@@H](CC[C@@]4(O)C(F)(F)C(F)(F)F)[C@@H]4CCC5=CC(=O)CCC5=C43)cc2)cc1", "human progesterone receptor A (Homo sapiens, UniProt P06401)", 9.80],
  ["C[C@]12C[C@H](c3ccc(C#CCOC(=O)Nc4ccc(N5CCCCC5)cc4)cc3)C3=C4CCC(=O)C=C4CCC3C1CC[C@@]2(O)C(F)(F)C(F)(F)F (stereo partly shown)", "human progesterone receptor A (Homo sapiens, UniProt P06401)", 10.00],
  ["COc1ccc(NC(=O)OCC#Cc2ccc([C@H]3C[C@@]4(C)C(CC[C@@]4(O)C(F)(F)C(F)(F)F)C4CCC5=CC(=O)CCC5=C43)cc2)cc1 (stereo partly shown)", "human progesterone receptor A (Homo sapiens, UniProt P06401)", 11.00],
  ["CC(C)(C)c1ccc(NC(=O)NCC#Cc2ccc([C@H]3C[C@@]4(C)[C@@H](CC[C@@]4(O)C(F)(F)C(F)(F)F)[C@@H]4CCC5=CC(=O)CCC5=C43)cc2)cc1", "human progesterone receptor A (Homo sapiens, UniProt P06401)", 9.05],
  ["CCOC(=O)CNC(=O)NCC#Cc1ccc([C@H]2C[C@@]3(C)C(CC[C@@]3(O)C(F)(F)C(F)(F)F)C3CCC4=CC(=O)CCC4=C32)cc1 (stereo partly shown)", "human progesterone receptor A (Homo sapiens, UniProt P06401)", 9.15],
  ["Cc1ccc(NC(=O)OCC#Cc2ccc([C@H]3C[C@@]4(C)C(CC[C@@]4(O)C(F)(F)C(F)(F)F)C4CCC5=CC(=O)CCC5=C43)cc2)cc1 (stereo partly shown)", "human progesterone receptor A (Homo sapiens, UniProt P06401)", 11.00],
  ["C[C@]12C[C@H](c3ccc(C#CCOC(=O)Nc4ccc(Cl)cc4)cc3)C3=C4CCC(=O)C=C4CCC3C1CC[C@@]2(O)C(F)(F)C(F)(F)F (stereo partly shown)", "human progesterone receptor A (Homo sapiens, UniProt P06401)", 9.59],
  ["C[C@]12C[C@H](c3ccc(C#CCOC(=O)Nc4ccccc4)cc3)C3=C4CCC(=O)C=C4CCC3C1CC[C@@]2(O)C(F)(F)C(F)(F)F (stereo partly shown)", "human progesterone receptor A (Homo sapiens, UniProt P06401)", 11.00],
  ["CC(C)(C)c1ccc(NC(=O)OCC#Cc2ccc([C@H]3C[C@@]4(C)C(CC[C@@]4(O)C(F)(F)C(F)(F)F)C4CCC5=CC(=O)CCC5=C43)cc2)cc1 (stereo partly shown)", "human progesterone receptor A (Homo sapiens, UniProt P06401)", 9.15],
  ["C[C@]12C[C@H](c3ccc(C#C/C=N\\OCc4ccccc4)cc3)C3=C4CCC(=O)C=C4CCC3C1CC[C@@]2(O)C(F)(F)C(F)(F)F (stereo partly shown) [Example 24B]", "human progesterone receptor A (Homo sapiens, UniProt P06401)", 10.00],
  ["C[C@]12C[C@H](c3ccc(C#CCNC(=O)Nc4ccc(F)cc4)cc3)C3=C4CCC(=O)C=C4CC[C@H]3[C@@H]1CC[C@@]2(O)C(F)(F)C(F)(F)F", "human progesterone receptor A (Homo sapiens, UniProt P06401)", 10.00],
  ["CCNC(=O)OCC#Cc1ccc([C@H]2C[C@@]3(C)C(CC[C@@]3(O)C(F)(F)C(F)(F)F)C3CCC4=CC(=O)CCC4=C32)cc1 (stereo partly shown)", "human progesterone receptor A (Homo sapiens, UniProt P06401)", 11.00],
  ["C[C@]12C[C@H](c3ccc(C#CC(=O)O)cc3)C3=C4CCC(=O)C=C4CCC3C1CC[C@@]2(O)C(F)(F)C(F)(F)F (stereo partly shown)", "human progesterone receptor A (Homo sapiens, UniProt P06401)", 7.49],
  ["Cc1noc(C)c1NC(=O)NCC#Cc1ccc([C@H]2C[C@@]3(C)C(CC[C@@]3(O)C(F)(F)C(F)(F)F)C3CCC4=CC(=O)CCC4=C32)cc1 (stereo partly shown)", "human progesterone receptor A (Homo sapiens, UniProt P06401)", 10.40],
  ["CC(C)(C)NC(=O)NCC#Cc1ccc([C@H]2C[C@@]3(C)[C@@H](CC[C@@]3(O)C(F)(F)C(F)(F)F)[C@@H]3CCC4=CC(=O)CCC4=C32)cc1", "human progesterone receptor A (Homo sapiens, UniProt P06401)", 10.00],
  ["CCNC(=O)NCC#Cc1ccc([C@H]2C[C@@]3(C)C(CC[C@@]3(O)C(F)(F)C(F)(F)F)C3CCC4=CC(=O)CCC4=C32)cc1 (stereo partly shown)", "human progesterone receptor A (Homo sapiens, UniProt P06401)", 10.10],
  ["CCOC(=O)/C=C/C#Cc1ccc([C@H]2C[C@@]3(C)C(CC[C@@]3(O)C(F)(F)C(F)(F)F)C3CCC4=CC(=O)CCC4=C32)cc1 (stereo partly shown)", "human progesterone receptor A (Homo sapiens, UniProt P06401)", 7.89],
  ["CC(C)NC(=O)NCC#Cc1ccc([C@H]2C[C@@]3(C)[C@@H](CC[C@@]3(O)C(F)(F)C(F)(F)F)[C@@H]3CCC4=CC(=O)CCC4=C32)cc1", "human progesterone receptor A (Homo sapiens, UniProt P06401)", 10.00]
]}

Provenance of the data: patent US9102701B2
